assay: Gemcitabine urine pharmacokinetics (renal excretion) in Slc28a1+/+ and Slc28a1-/- mice; conditions: mouse, urine, intravenous, 50 mg/kg, Cp (Gemcitabine), Figure 5 G, H, I; KO mice, 5 Minutes, individual mice
Where a name gives a salt, the structure may show the parent alone.
Recorded Endpoint: concentration at 5 min
A complete answer gives the number followed by the unit.

Item Nc1ccn([C@@H]2O[C@H](CO)[C@@H](O)C2(F)F)c(=O)n1 [dFdC, Gemcitabine hydrochloride, reference compound] has what recorded concentration at 5 min?
690 µg/mL

====

assay: Gemcitabine urine pharmacokinetics (renal excretion) in Slc28a1+/+ and Slc28a1-/- mice; conditions: mouse, urine, intravenous, 50 mg/kg, Cp (Gemcitabine), Figure 5 G, H, I; WT mice, 120 Minutes, individual mice
Counter-ions that a name gives are not always drawn.
Recorded Endpoint: concentration at 120 min (µg/mL)
Your answer should be a plain number; it is taken to be in µg/mL.

Which concentration at 120 min is reported for this compound? Nc1ccn([C@@H]2O[C@H](CO)[C@@H](O)C2(F)F)c(=O)n1 [dFdC, Gemcitabine hydrochloride, reference compound]
403
